- conditionDescription: cell viability/%
- Description: Each type of assay must be simplified and miniaturized to assess the activities of the library peptides in a 96-well format for the high-throughput screening. […] Mammalian cytotoxicity assay of bead-derived peptides . P388 cells were obtained from Institute of […] for 92 h, the numbers of viable cells were determined by […] at 37 °C. The absorbance of each well at 415 nm was measured using a Benchmark microplate reader (Bio-Rad). The cytotoxicities were evaluated as cell viability (%). […]
Where a SMILES comes first, the peptide text is derived from it. [ ]: non-standard residue; d: D form. The star is where a group is joined. NHCH2CH2OH = OCCN*; For = O=C*
Parameter: viability. Scope: all listed entries.
Form entry: value (%) — number only.

[
  {
    "compound": "CC(C)C[C@@H](NC(=O)[C@H](Cc1c[nH]c2ccccc12)NC(=O)[C@H](NC(=O)[C@H](Cc1c[nH]c2ccccc12)NC(=O)[C@@H](CC(C)C)NC(=O)[C@@H](NC(=O)[C@H](NC(=O)[C@H](C)NC(=O)[C@H](NC(=O)[C@H](C)NC(=O)CNC(=O)[C@@H](NC=O)C(C)C)[C@H](C)O)C(C)C)C(C)C)[C@H](C)O)C(=O)N[C@@H](Cc1c[nH]c2ccccc12)C(=O)N[C@@H](C(=O)N[C@@H](Cc1c[nH]c2ccccc12)C(=O)NCCO)C(C)C [compound 13245] (For-VGA[dT]A[dV]V[dL]W[dT]W[dL]W[dV]W-NHCH2CH2OH)",
    "viability / %": 100
  }
]

Now take the following compound into account.
Note to self: viability recorded for CNC(=O)C[C@@H](NC(=O)[C@H](C)NC(=O)[C@H](NC(=O)[C@H](C)NC(=O)CNC(=O)[C@@H](NC=O)C(C)C)C(C)C)C(=O)N[C@H](C(=O)N[C@H](CC(C)C)C(=O)N[C@@H](Cc1c[nH]c2ccccc12)C(=O)N[C@H](CC(C)C)C(=O)N[C@@H](Cc1c[nH]c2ccccc12)C(=O)N[C@@H](C(=O)N[C@@H](Cc1c[nH]c2ccccc12)C(=O)N[C@H](CC(C)C)C(=O)N[C@@H](Cc1c[nH]c2ccccc12)C(=O)NCCO)C(C)C)C(C)C [compound 1489] (For-VGA[dV]A[dD](NHMe)V[dL]W[dL]W[dV]W[dL]W-NHCH2CH2OH) was 100

Data provenance: paper PMC7531004
